- assay.overview: Solubility in water at 25° C
- Assay type: physicochemical
- measurement.context: known compounds, pH 4.00, 25° C, read-out: Solubility at pH 4.00
measured.endpoint: solubility (µg/mL)
The figure you give is taken to be in µg/mL; do not add the unit.

[[record]]
compound = "COC(=O)C1=C(C)NC(C)=C(C(=O)OC)C1c1ccccc1C#N [reference compound]"
measured_endpoint = "solubility"
numeric_readout = 1


We next turn to a different compound, shown below.
Problem: Data request, read-out solubility, for CCOC(=O)C1=C(C)NC(C)=C(C(=O)OCC)C1c1ccccc1C(F)(F)F [SKF 24260, reference compound]
Result: 10

* * *

- assay.overview: Solubility in water at 25° C
- Type: physicochemical
- measurement.context: compounds of the present invention, 25° C
Counter-ions that a name gives are not always drawn.
Quick reference for pH (of solubility determination) among some compounds
Answer field: number only, no words.

Please review the entries below; each comes with its answer.
[[record]]
compound = "COC(=O)C1=C(C)NC(C)=C(C(=O)OCCN(C)Cc2ccccc2)C1c1cccc([N+](=O)[O-])c1 (stereo not shown) [Example 2, hydrochloride]"
numeric_readout = 3.92

[[record]]
compound = "CCOC(=O)C1=C(C)NC(C)=C(C(=O)OCCN(C)Cc2ccccc2)C1c1cccc([N+](=O)[O-])c1 (stereo not shown)"
numeric_readout = 4.20

[[record]]
compound = "COC(=O)C1=C(C)NC(C)=C(C(=O)OCCN(C)Cc2ccccc2)C1c1ccccc1C(F)(F)F (stereo not shown) [Example 24, hydrochloride]"
numeric_readout = 3.91

[[record]]
compound = "COc1ccc(CN(C)CCOC(=O)C2=C(C)NC(C)=C(C(=O)OCCN(C)Cc3ccc(OC)cc3)C2c2cccc([N+](=O)[O-])c2)cc1 [Example 16, dihydrochloride]"
numeric_readout = 3.20

[[record]]
compound = "CCOC(=O)C1=C(C)NC(C)=C(C(=O)OCCN(C)Cc2ccc(OC)cc2)C1c1cccc([N+](=O)[O-])c1 (stereo not shown)"
numeric_readout = 4.17


Problem: Data request, read-out pH (of solubility determination), for CC1=C(C(=O)OCCN(C)Cc2ccccc2)C(c2ccccc2[N+](=O)[O-])C(C(=O)OC(C)C)=C(C)N1 (stereo not shown)
Result: 4.10

Problem: Data request, read-out pH (of solubility determination), for CC1=C(C(=O)OCCN(C)Cc2ccccc2)C(c2cccc([N+](=O)[O-])c2)C(C(=O)OC(C)C)=C(C)N1 (stereo not shown) [Example 1, hydrochloride]
Result: 4.12
